Every entry's value here was drawn from PubChem BioAssay (NCATS).

- assay.comment: qHTS drug screen for cell cycle checkpoint inhibitors in PARPi-resistant BRCA-mutant ovarian cancer cell lines. (AID 1963452)
- condition.context: PEO1/OlaR viability, CellTiter-Glo luminescence, 96 h; measured here: PEO4 Z-AUC; stronger effect = lower value
outcome.measure: Z-AUC
Form: value (number only, do not type unit).

Previously resolved entries follow.
INSERT INTO results (smiles_entry, number) VALUES
  ('CO[C@H]1C[C@@H]2CC[C@@H](C)[C@@](O)(O2)C(=O)C(=O)N2CCCC[C@H]2C(=O)O[C@H]([C@H](C)C[C@@H]2CC[C@@H](OC(=O)C(C)(CO)CO)[C@H](OC)C2)CC(=O)[C@H](C)/C=C(\C)[C@@H](O)[C@@H](OC)C(=O)[C@H](C)C[C@H](C)/C=C/C=C/C=C/1C', -0.64),
  ('COc1ccc([C@@H]2CC(=O)c3c(O)cc(O[C@@H]4O[C@H](CO[C@@H]5O[C@@H](C)[C@H](O)[C@@H](O)[C@H]5O)[C@@H](O)[C@H](O)[C@H]4O)cc3O2)cc1O', 0.67),
  ('CNC(=O)[C@H](Cc1c[nH]c2ccccc12)NC(=O)[C@@H](CC(=O)NO)CC(C)C', 0.809),
  ('CC(C)Cc1ccc([C@@H](C)C(=O)NS(C)(=O)=O)cc1', 0.752),
  ('C=CC[C@@H]1/C=C(\C)C[C@H](C)C[C@H](OC)[C@H]2O[C@@](O)(C(=O)C(=O)N3CCCC[C@H]3C(=O)O[C@H](/C(C)=C/[C@@H]3CC[C@@H](O)[C@H](OC)C3)[C@H](C)[C@@H](O)CC1=O)[C@H](C)C[C@@H]2OC', 1.02),
  ('COC1=C(OC)C(=O)C(C/C=C(\C)CC/C=C(\C)CC/C=C(\C)CC/C=C(\C)CC/C=C(\C)CC/C=C(\C)CC/C=C(\C)CC/C=C(\C)CC/C=C(\C)CCC=C(C)C)=C(C)C1=O', 0.209),
  ('CN(C)CCOc1ccc(/C(=C(/CCCl)c2ccccc2)c2ccccc2)cc1', 0.656);

Shift focus to the following entry.
Quick one: Z-AUC of NC[C@H]1O[C@H](O[C@H]2[C@H](O)[C@@H](O[C@H]3O[C@H](CO)[C@@H](O)[C@H](N)[C@H]3O)[C@H](N)C[C@@H]2N)[C@H](N)C[C@@H]1O ? -0.139

###

- assayed.system: Estrogen receptor (Homo sapiens) (UniProt P03372)
- Sequence (P03372 whole entry, looked up): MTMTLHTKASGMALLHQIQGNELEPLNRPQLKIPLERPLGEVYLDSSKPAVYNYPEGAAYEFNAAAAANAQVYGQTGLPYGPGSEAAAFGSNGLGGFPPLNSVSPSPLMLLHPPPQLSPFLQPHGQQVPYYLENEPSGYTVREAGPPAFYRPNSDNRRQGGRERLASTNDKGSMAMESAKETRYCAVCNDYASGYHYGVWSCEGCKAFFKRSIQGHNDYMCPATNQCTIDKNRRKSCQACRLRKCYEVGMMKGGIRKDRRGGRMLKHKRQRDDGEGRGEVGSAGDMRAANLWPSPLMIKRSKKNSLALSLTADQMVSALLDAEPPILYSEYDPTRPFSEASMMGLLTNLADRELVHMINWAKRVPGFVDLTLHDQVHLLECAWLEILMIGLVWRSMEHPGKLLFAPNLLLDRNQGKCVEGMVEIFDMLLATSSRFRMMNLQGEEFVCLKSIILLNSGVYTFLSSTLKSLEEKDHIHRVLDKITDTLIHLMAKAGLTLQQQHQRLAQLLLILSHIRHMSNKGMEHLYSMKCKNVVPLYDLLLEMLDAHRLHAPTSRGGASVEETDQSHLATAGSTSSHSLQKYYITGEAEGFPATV
- assay.comment: qHTS assay for small molecule agonists of estrogen receptor alpha signaling (AID 588514); further: nearly all actives have a fitted effect of over 70% in size
- condition.context: ER-alpha-UAS-bla HEK293, beta-lactamase ratio, 18 h; series mostly up to 76.8 µM
- Procedure: NIH Chemical Genomics Center [NCGC] U.S. Environmental Protection Agency [EPA] National Institutes of Environmental Health Sciences [NIEHS] National Toxicology Program [NTP] […] Using a beta-lactamase reporter-gene under control of the ER response element, a cell-based assay [ER-alpha-UAS-bla GripTiteTM cell-Based Assay from Invitrogen] was used to measure ER-alpha signaling pathway in agonist mode. […] Library compounds were measured for their ability to either stimulate the reporter gene activity. […]
Results filed as inconclusive are left out. Activity calls are given as the source filed them. Calls come from the whole dose curve.
Just give me one of these, please: 1 (active), 0 (inactive)

Consider the worked cases shown below.
INSERT INTO results (molecule, class_label) VALUES
  ('Cc1ccc(S(=O)(=O)O)cc1C', 0),
  ('CC1=CCC2CC1C2(C)C (configuration not stated)', 0),
  ('Cc1ccc(S(=O)(=O)NCl)cc1', 0),
  ('c1ccc2ccccc2c1', 0),
  ('OCC(O)CO', 0),
  ('OCl', 0),
  ('COC(=O)c1ccccc1O', 0),
  ('OCc1ccccc1', 0);

Tell me the assay call for NC(N)=O please. 0

Same again, this time with CC(C)(C)CC(C)(C)c1ccc(OCCO)cc1 0

Same again, this time with CC(C)CCCCCCc1ccc(O)cc1 1

Same again, this time with C=C(C)C1CC=C(C)CC1 (configuration not stated) 0

Same again, this time with CO[C@@H]1[C@H](OC(=O)/C=C/C=C/C=C/C=C/C(=O)O)CC[C@]2(CO2)[C@H]1[C@@]1(C)O[C@@H]1CC=C(C)C 0

Same again, this time with [O-][N+](=Nc1ccccc1)c1ccccc1 0
